Values were extracted from ChEMBL document CHEMBL3611970.

# Test system: Staphylococcus aureus
# Assay Method Text: Antimicrobial activity against methicillin-resistant Staphylococcus aureus 309-8 clinical isolate after 16 hrs by broth microdilution method
# Type: functional
# Condition Label: 309-8, 16 h
# Lookup of reported MIC keyed by entry
All answers are understood in µg/mL, so give the number only.

Some solved cases for reference:
Compound Structure: COc1cccc(NC(=S)N/N=C2\C(=O)Nc3c(F)cccc32)c1
System Under Test: Staphylococcus aureus
Unit Of Measurement: µg/mL
MIC: 1.56
//
Compound Structure: Cc1ccc(NC(=S)N/N=C2\C(=O)Nc3c(C)cccc32)cc1
System Under Test: Staphylococcus aureus
Unit Of Measurement: µg/mL
MIC: 1.56
//
Compound Structure: COc1ccccc1NC(=S)N/N=C1\C(=O)Nc2c(I)cccc21
System Under Test: Staphylococcus aureus
Unit Of Measurement: µg/mL
MIC: 12.5

Please turn your attention to the following entry.
Exam item: // MIC lookup, key: `COc1cccc(NC(=S)N/N=C2\C(=O)Nc3c(Br)cccc32)c1`
Marked response: 3.12

====

# Tested on: Klebsiella pneumoniae
# Assay Method Text: Antimicrobial activity against Klebsiella pneumoniae KP-249 clinical isolate after 16 hrs by broth microdilution method
# Type: functional
# Condition Label: KP-249, 16 h
Observable: MIC

Compound Structure: Cc1ccc(NC(=S)N/N=C2\C(=O)Nc3c(Cl)cccc32)cc1
MIC: > 100 µg/mL

Compound Structure: Cc1cccc2c1NC(=O)/C2=N\NC(=S)Nc1ccc(F)cc1
MIC: > 100 µg/mL

Compound Structure: O=C1Nc2c(Br)cccc2/C1=N/NC(=S)Nc1cccc(F)c1
MIC: > 100 µg/mL

Compound Structure: COc1cccc(NC(=S)N/N=C2\C(=O)Nc3c(Br)cccc32)c1
MIC: > 100 µg/mL

Compound Structure: O=C1Nc2c(Cl)cccc2/C1=N/NC(=S)Nc1ccc(Cl)cc1
MIC: > 100 µg/mL

Compound Structure: O=C1Nc2c(Br)cccc2/C1=N/NC(=S)Nc1ccc(Cl)cc1
MIC: > 100 µg/mL

Exam item: Which measured MIC belongs to `COc1ccccc1NC(=S)N/N=C1\C(=O)Nc2c(F)cccc21` , tested on Klebsiella pneumoniae?
Marked response: > 100 µg/mL

Exam item: API: value(readout=MIC, system=Klebsiella pneumoniae) for record `O=C1Nc2c(I)cccc2/C1=N/NC(=S)Nc1ccc(F)cc1`
Marked response: > 100 µg/mL

====

# Test system: Staphylococcus aureus
# Assay Method Text: Antimicrobial activity against methicillin-resistant Staphylococcus aureus 309-8 clinical isolate after 16 hrs by broth microdilution method
# Type: functional
# Condition Label: 309-8, 16 h
Observable: MIC (µg/mL)
Answer with a number only, understood to be in µg/mL.

These recorded examples may help you get a feel for the data.
Compound Structure: O=C1Nc2c(F)cccc2/C1=N/NC(=S)Nc1cccc(F)c1
Observable: MIC
Recorded Number: 0.78

Compound Structure: Cc1cccc(NC(=S)N/N=C2\C(=O)Nc3c(Cl)cccc32)c1
Observable: MIC
Recorded Number: 1.56

Compound Structure: O=C1Nc2c(F)cccc2/C1=N/NC(=S)Nc1ccc(F)cc1
Observable: MIC
Recorded Number: 1.56

Compound Structure: COc1ccc(NC(=S)N/N=C2\C(=O)Nc3c(F)cccc32)cc1
Observable: MIC
Recorded Number: 3.12

Compound Structure: Cc1ccccc1NC(=S)N/N=C1\C(=O)Nc2c(I)cccc21
Observable: MIC
Recorded Number: 3.12

Compound Structure: O=C1Nc2c(I)cccc2/C1=N/NC(=S)Nc1cccc(F)c1
Observable: MIC
Recorded Number: 0.78

Compound Structure: Cc1ccccc1NC(=S)N/N=C1\C(=O)Nc2c(F)cccc21
Observable: MIC
Recorded Number: 1.56

Compound Structure: Cc1cccc2c1NC(=O)/C2=N\NC(=S)Nc1ccc(Cl)cc1
Observable: MIC
Recorded Number: 1.56

Exam item: Please give the measured MIC for this molecule: `O=C1Nc2c(Br)cccc2/C1=N/NC(=S)Nc1cccc(Cl)c1`
Marked response: 1.56
